assay: Exposure in non-fasted male rats; details: Sprague Dawley, rat, in vivo, oral, 10 mg/kg
MEASURED_ATTRIBUTE: Cmax
Returns: string containing the numeric result and its unit.

Record request: Cmax value, item C[C@H](NC(=O)c1cnc(C#N)c(-c2cc(F)cc(F)c2)c1N1CC[C@H](N)C1)C(F)(F)F
45 ng/mL

----------
assay: SAD study pharmacokinetics; format: in vivo, human; settings: human, in vivo; single oral dose, healthy volunteers
MEASURED_ATTRIBUTE: half-life

Record request: half-life value, item C[C@H](NC(=O)c1cnc(C#N)c(-c2cc(F)cc(F)c2)c1N1CC[C@H](N)C1)C(F)(F)F
~40 h

----------
Biological target: human somatostatin receptor subtype 5 (Homo sapiens, UniProt P35346)
Construct: expressed in transfected cells
Sequence (P35346 whole entry): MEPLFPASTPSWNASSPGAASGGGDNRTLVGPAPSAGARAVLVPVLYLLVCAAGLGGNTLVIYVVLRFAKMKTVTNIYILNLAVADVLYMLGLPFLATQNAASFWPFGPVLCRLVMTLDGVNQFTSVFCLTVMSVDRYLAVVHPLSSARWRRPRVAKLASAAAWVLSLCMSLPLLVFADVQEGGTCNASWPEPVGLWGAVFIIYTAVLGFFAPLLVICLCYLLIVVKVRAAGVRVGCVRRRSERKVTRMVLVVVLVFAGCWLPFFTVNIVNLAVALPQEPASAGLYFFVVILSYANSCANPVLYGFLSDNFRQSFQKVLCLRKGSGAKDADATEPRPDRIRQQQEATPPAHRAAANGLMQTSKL
Assay: cAMP assay for SST5R
Type: cell-based
Conditions: inhibition of cAMP, CHO-K1 cells expressing human SST5; read-out: SST5 potency (EC50; nM)
Text: General overview: All five SSTR subtypes are Gi coupled G-protein coupled receptors (GPCRs) that lead to decreases in intracellular cyclic AMP (cAMP) when activated by an agonist. Therefore, measurement of intracellular cAMP levels can be used to assess whether compounds of the invention are agonists of SSTR subtypes (John Kelly, Troy Stevens, W. Joseph Thompson, and Roland Seifert, Current Protocols in Pharmacology, 2005, 2.2.1-2.2). One example of an intracellular cAMP assay is described below. […]
MEASURED_ATTRIBUTE: EC50

Record request: EC50 value, item C[C@H](NC(=O)c1cnc(C#N)c(-c2cc(F)cc(F)c2)c1N1CC[C@H](N)C1)C(F)(F)F
< 1 nM

----------
assay: Exposure in non-fasted male rats; details: Sprague Dawley, rat, in vivo, oral, 10 mg/kg
MEASURED_ATTRIBUTE: AUC
Returns: string containing the numeric result and its unit.

Record request: AUC value, item C[C@H](NC(=O)c1cnc(C#N)c(-c2cc(F)cc(F)c2)c1N1CC[C@H](N)C1)C(F)(F)F [Compound 1]
590 ng·h/mL

----------
target: human somatostatin receptor subtype 2 (Homo sapiens, UniProt P30874); construct: expressed in transfected cells; assay: cAMP assay for SST2R; format: cell-based; details: inhibition of cAMP, CHO-K1 cells expressing human SST2; read-out: SST2 potency (EC50; nM)
Sequence (P30874 whole entry): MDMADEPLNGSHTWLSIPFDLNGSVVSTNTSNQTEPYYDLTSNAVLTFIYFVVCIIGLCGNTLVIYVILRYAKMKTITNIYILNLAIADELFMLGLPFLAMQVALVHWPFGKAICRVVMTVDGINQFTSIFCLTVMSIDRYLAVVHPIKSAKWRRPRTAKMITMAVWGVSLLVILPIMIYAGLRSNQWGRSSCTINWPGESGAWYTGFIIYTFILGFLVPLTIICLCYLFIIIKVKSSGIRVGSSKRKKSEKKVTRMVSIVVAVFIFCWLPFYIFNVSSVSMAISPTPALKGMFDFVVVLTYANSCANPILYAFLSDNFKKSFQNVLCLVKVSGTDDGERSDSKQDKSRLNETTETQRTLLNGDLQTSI
MEASURED_ATTRIBUTE: EC50

# query: EC50 | item C[C@H](NC(=O)c1cnc(C#N)c(-c2cc(F)cc(F)c2)c1N1CC[C@H](N)C1)C(F)(F)F | system: human somatostatin receptor subtype 2 (Homo sapiens, UniProt P30874)
> 100 nM

----------
experiment: SAD study pharmacokinetics; assay type: in vivo, human; details: human, in vivo; single oral dose, at efficacious doses
MEASURED_ATTRIBUTE: Tmax

Record request: Tmax value, item C[C@H](NC(=O)c1cnc(C#N)c(-c2cc(F)cc(F)c2)c1N1CC[C@H](N)C1)C(F)(F)F
1 to 2 h

Data provenance is patent US20220323427A1.
